Measured Property: melting point

(Q) Need melting point, item Clc1ccc(-c2csc(-c3cnccc3N3CCOCC3)n2)cc1
(A) 169 °C

(Q) So what does the record say about melting point for O=C(O)C1c2ccccc2COc2ccc(F)cc21 (stereo unspecified) ?
(A) 176 °C

(Q) Data request, read-out melting point, for CC1(Oc2ccc(N)cc2)C2CC3CC(C2)CC1C3 (stereo unspecified)
(A) 95.6 to 97.9 °C

(Q) What melting point value was documented for this molecule, CC(C)(C)c1ccc(C(=O)Nc2cn3cc(-n4cncn4)ccc3n2)cc1 ?
(A) 274 to 276 °C

(Q) Need melting point, item CCC1(CC(=O)O)OCCc2nc(-c3ccc(Cl)cc3)sc21 (stereo unspecified)
(A) 190 to 191 °C

(Q) Request the reported melting point associated with O=C1Nc2ccc(F)nc2N2CCNCC12 (stereo unspecified)
(A) 305 to 308 °C

(Q) Consider the molecule shown here: CCC1CCCCN1CCNc1ccnc2cc(Cl)ccc12 (racemic) What is its recorded melting point?
(A) 115 to 117 °C

(Q) Could you share which melting point value was measured for Cn1c(C=O)cc2ccccc21 ?
(A) 83 °C

(Q) State the recorded melting point for this entry: CONC(=O)c1ccccc1OCc1ccc(Cl)cc1Cl
(A) 100 to 102 °C

(Q) Request the reported melting point associated with Cc1cn2ccc(N)c(I)c2n1
(A) 185 °C

(Q) Look at this molecule and give its reported melting point. CC(=O)OC(C)OC(=O)[C@H](Cc1ccc(-c2c(C)n(C)c(=O)n(C)c2=O)cc1)NC(=O)c1c(Cl)cccc1Cl (stereo partly specified)
(A) 168 to 170 °C

###

Measured Property: melting point

(Q) Request the reported melting point associated with Cn1c(=O)c(-c2ccc(Cl)cc2Cl)cc2c3cc(-c4nnc(N)s4)ccc3n(C)c21
(A) 321 to 323 °C

(Q) Quick one: melting point for CC1COc2cccc([N+](=O)[O-])c2N1 (stereo not given) ?
(A) 60 °C

(Q) Param item = Cc1ccc(-c2ncccc2OC2SCC(O)C(O)C2O)o1 (stereo not given) ; retrieve measured melting point.
(A) 191 °C

(Q) Query: melting point; subject: Cc1nc2c3c(ccc2n1C)[C@@H](O)[C@H](O)[C@@H](c1ccccc1)N3
(A) 225 °C

(Q) Any idea what melting point was measured for CCOC(=O)C(C)(C)C(O)C(c1ccc(Cl)cc1)n1ccnc1 (stereo not given) ?
(A) 120 to 124 °C

(Q) I would be grateful if you could share the reported melting point for CCNC(=O)CCC(=O)c1cnc2c(OC)cccc2c1Nc1ccccc1C .
(A) 88.5 to 90 °C

(Q) I would be grateful if you could share the reported melting point for CC(=O)CC(=O)c1ccc2c3c(cccc13)CC2 .
(A) 59 °C

(Q) Value lookup for melting point; key = CC(C)C(OC(=O)NC(C)(Cc1ccccc1)C(=O)NC(CO)c1ccccc1)c1ccccc1 (stereo not given)
(A) 124 to 130 °C

(Q) Which melting point is listed for O=C1CCC(=O)N1Cc1cccc(Nc2n[nH]c3ncnc(Nc4cccc(Cl)c4)c23)c1 ?
(A) 140 to 142 °C

(Q) Returns the measured melting point for the input compound. Input: CC(=O)C1=C(C)N=C(c2ccccc2)NC1c1cccc([N+](=O)[O-])c1 (stereo not given)
(A) 154 to 155 °C

(Q) Bench note: what melting point did CCOc1ccc2c(=O)cc(-c3ccccc3O)oc2c1 show?
(A) 295 to 297 °C

(Q) What does the record list as melting point for CCCSc1sc(C(N)=O)c2c1-c1nn(S(C)(=O)=O)cc1CC2 ?
(A) 191 to 192 °C

(Q) Given the compound COc1cc2c(Nc3ccc(Sc4ccccn4)c(Cl)c3)c(C#N)cnc2cc1F , what is its reported melting point?
(A) 225 to 228 °C

(Q) # get_value(readout='melting point', item= COc1cccc(-n2nc(C)c3ccc([N+](=O)[O-])cc32)c1C#N )
(A) 244 °C

(Q) What does the data say about its melting point? Entry: CC(=O)N1CCc2c([nH]c3ccccc23)C1
(A) 240 to 241 °C

(Q) Could you tell me which melting point is on file for COc1cccc(C#Cc2ncn3c2[C@@H]2CCCN2C(=O)c2c(Cl)cccc2-3)c1 ?
(A) 204 to 205 °C

(Q) Item under review: Cn1nnnc1SCCCCSc1ccccn1 . Reported melting point?
(A) 49 to 51.5 °C

(Q) // melting point lookup, key: COC(=O)[C@@H]1C[C@H](NC(C)=O)C(=O)[C@H]2[C@@]1(C)CC[C@H]1C(=O)O[C@H](c3ccoc3)C[C@]21C
(A) 222 to 224 °C

(Q) State the recorded melting point for this entry: CCCn1c(COCC)nc2c(N)nc3ccc(OCCNS(C)(=O)=O)cc3c21
(A) 178 to 180 °C

(Q) Given CCOC(=O)c1ccc(OCC2CCN(c3ccc(OC)nn3)CC2)cc1 , state its recorded melting point.
(A) 147 °C

###

So I've got a bunch of compounds here, and I need their melting point values.

(Q) Recorded melting point of COC(=O)Nc1nc(C)c(-c2nc3ccccc3c(=O)n2-c2ccccc2Cl)s1 , please.
(A) 243 to 245 °C

(Q) What value of measured melting point is listed for Clc1ccc2c(c1)ncc1ncsc12 ?
(A) 199 to 200 °C

(Q) Return reported melting point; argument: NNc1nc2cc(Cl)ccc2nc1Cl
(A) < 250 °C

(Q) Entry COc1ccc2c(c1C)CCCC2=O : reported melting point = ?
(A) 103 to 105 °C

(Q) Requested read-out: melting point. Entry: Cc1nc2nc(SCc3ccccc3)nn2c(O)c1Cl
(A) 258 to 260 °C

(Q) Sample CC(C)(C)C(=O)COc1nn(CC#N)c(-c2ccc(S(C)(=O)=O)cc2)c1-c1ccc(F)cc1 — what was its melting point?
(A) 156 to 159 °C

(Q) Entry CCc1nc2c(cnn2CC)c(NC2CCOCC2)c1CNC(=O)c1cc(C)cc(C(=O)NCc2ccc(OC)c(-c3cccc(CC4CCN(C)CC4)c3)c2)c1 has what melting point?
(A) 115 to 117 °C

(Q) Report melting point for O=C(Cn1cccc(O)c1=O)NCCCCCCNC(=O)Cn1cccc(O)c1=O please.
(A) 240 to 242 °C

(Q) Fill blank: measured melting point of the compound ON=C(c1cccc(F)c1)c1ccc(O)c(Cl)c1Cl is ____.
(A) 178 to 185 °C

(Q) Would you mind telling me what melting point value was observed for COc1ccc2c(N=O)c(O)ccc2c1 ?
(A) 147 to 148 °C

###

For each record, write down the corresponding melting point.

(Q) Given the molecule N#Cc1cnc2cc(Br)ccc2c1Nc1ccc(Cl)cc1Cl , what is its reported melting point?
(A) 180 to 183 °C

(Q) Name the recorded melting point for CCCCCCCCCCCCn1nnnc1Nc1ccccc1 .
(A) 108 to 111 °C

(Q) Name the reported melting point value associated with the molecule COc1ccc(-c2ccc(C)nc2-c2ccc(O)cc2)cc1
(A) 190 °C

(Q) Which melting point value belongs to CCN(CC)Cc1c(Cl)ccc2cc(Cl)cnc12 ?
(A) 54 °C

(Q) Fill in: melting point of Clc1ccc2nc(N3CCCCC3)nc(N3CCCCC3)c2c1 is ___
(A) 115 to 118 °C

(Q) Would you mind telling me what melting point value was observed for COC(=O)NC1CN(C(=O)c2cc(OC)c(OC)c(OC)c2)CCN1C(=O)C1=Cc2cc(OC)c(OC)cc2CCC1 (stereo not given) ?
(A) 143 to 145 °C

(Q) Entry NCCc1c[nH]c2ccc(NC(=O)Nc3ccccc3)cc12 : reported melting point = ?
(A) 192 to 194 °C

(Q) I would be grateful if you could share the reported melting point for COc1ccc(N2CCCn3c2nc2c(Cl)ccc(C(OC)C(F)(F)F)c23)c(C)n1 (stereo not given) .
(A) 144 to 146 °C

(Q) Would you mind telling me what melting point value was observed for COC(=O)CCCCCNC(=O)c1csc(NC(=O)NCc2ccccc2)n1 ?
(A) 140 °C

(Q) // melting point lookup, key: CNC(=O)Nc1cc(CNc2ncccc2C(=O)Nc2ccc3cn(C)nc3c2)ccn1
(A) 205 to 207 °C

(Q) What does the data say about its melting point? Entry: C=CCNc1nc(C)cc(C)n1
(A) 62 to 63 °C

(Q) Entry CN1C(=O)CCC(=O)N1c1cc(-c2ccnc(Nc3cccc(Cl)c3)n2)ccn1 : reported melting point = ?
(A) 201 to 204 °C

(Q) # get_value(readout='melting point', item= O=C(O)Cc1ccc(CO[N+](=O)[O-])cc1 )
(A) 109 to 110 °C

(Q) Suppose we examine the molecule Cc1cccc(CC(Nc2ccc3c(c2)C(=O)OC3)C(=O)NC(C#N)CCCCc2cccc(C(=O)O)c2)c1 (stereo not given) ; what melting point value has been reported?
(A) 91 to 94 °C

(Q) Please look up its melting point: N#Cc1ccc(C2(CBr)OCCO2)cc1
(A) 92.4 °C

(Q) Looking for the measured melting point of COc1nc2c(c(OC)n1)C(c1ccc(F)c(OC)c1)C1=C(COC1=O)N2 (stereo not given) , can you help?
(A) 267 to 270 °C

(Q) Name the recorded melting point for COc1cc(NC(C)=O)c(Cl)c(C(F)(F)F)c1Cl .
(A) 143 to 144 °C

(Q) # query: melting point of entry CN1CCN(c2cccc3c2C[C@H](NC(=O)CCc2ccccc2)CC3)CC1
(A) 184 to 186 °C

(Q) Looking for the measured melting point of COCc1ccc(Oc2cc(OC3CCOCC3)c3[nH]c(C4=NCC(CC(C)(C)O)S4)cc3c2)cn1 (stereo not given) , can you help?
(A) 108 to 110 °C

(Q) Any idea what melting point was measured for CC(C)c1nc(CCO)n(Cc2ccncc2)c1Sc1cc(Cl)cc(Cl)c1 ?
(A) 121 to 122 °C

(Q) Entry under review: CCCCCc1c(/C=C/C(=O)O)sc2cc(OC)ccc12 . Reported melting point?
(A) 209 to 210 °C

(Q) Entry CCCn1c(COC)nc2c(N)nc3ccc(OCCCN4CCN(c5ccccn5)CC4)cc3c21 has what melting point?
(A) 196 to 197 °C

(Q) May I ask what melting point has been recorded for CC(=O)NCc1ccc(CN2CCN(c3ccc(F)cc3)CC2)cc1 ?
(A) 164 to 166 °C

(Q) Request the reported melting point associated with CN1CCC(c2c[nH]c3ccc(OC4CCCCC4)cc23)CC1
(A) 192 to 194 °C

(Q) I am curious: what melting point value has been reported for N#Cc1c(N2CCc3ccccc3CC2)nc(NCCOc2ccccc2)[nH]c1=O ?
(A) > 200 °C

(Q) # query: melting point of entry COc1cc(-c2cccs2)ccc1C(=O)/C=C/c1ccc(C(=O)O)cc1
(A) 193 to 195 °C

(Q) Look up melting point for this molecule: CC1(O)c2ccccc2COc2ccc(C(=O)O)cc21 (stereo not given)
(A) 258 °C

(Q) Query: melting point; subject: Nc1c(F)c(N2CCC(CC3(N)CC3)C2)c(F)c2c1c(=O)c(C(=O)O)cn2C1CC1F (stereo not given)
(A) 185 to 193 °C

(Q) What does the record list as melting point for O=C(CC1CC1)NC[C@H]1CN(c2ccc3c(c2)CCCc2cnoc2-3)C(=O)O1 ?
(A) 187 to 191 °C

(Q) Form field: reported melting point of COc1ccc(CNc2nn(CC(=O)O)c(=O)c3ccc(C#N)cc23)cc1Cl
(A) 173 to 175 °C

(Q) Can you share its melting point? I mean this molecule: CCCCc1nc(Cl)c(Cl)n1Cc1ccc(-n2cccc2C(=O)O)cc1
(A) 181 to 182 °C

(Q) Record request: melting point value, item CC(C)(C)C(=O)C(Br)Cc1cccnc1 (stereo not given)
(A) 163 to 164 °C

(Q) What value of melting point has been recorded for this entry: CCCCCCCCN(CCCCCCCC)C(=O)CS(=O)(=O)Nc1c(C(C)C)cccc1C(C)C
(A) 107 to 109 °C

(Q) I am curious: what melting point value has been reported for CCOC(=O)c1c(-c2ccncc2)[nH]c(-c2ccccc2)c1C ?
(A) 179 to 181 °C

(Q) Look up melting point: CNc1nc2ccccc2n1CCOS(C)(=O)=O
(A) 48 to 50 °C

(Q) Look at this molecule and give its reported melting point. C[C@H]1C(=O)C[C@@H]2C[C@H]1OO[C@@]2(C)C=O
(A) 92 °C

(Q) Any idea what its melting point is? The molecule is O=C(NNC(=O)c1cccc([N+](=O)[O-])c1)c1ccc([N+](=O)[O-])cc1
(A) 250 to 251 °C

(Q) Field request: melting point | item: CCCCCS(=O)(=O)NC(=O)CCc1cc(OC(C)C)nn1Cc1ccc(F)cc1F
(A) 107 to 108 °C

(Q) What measured melting point goes with CN(Cc1cc(C(F)(F)F)cc(C(F)(F)F)c1)C(=O)c1c(-c2ccccc2C(F)(F)F)c2ccccc2c(=O)n1C ?
(A) 159 to 160 °C

(Q) If you can, please state the reported melting point value of CC(SC1COC(c2ccc(C(=O)Nc3ccc(C#N)c(C#N)c3)cc2)OC1)C(O)(Cn1cncn1)c1ccc(F)cc1F (stereo not given) .
(A) 182 °C

Numbers sourced from a melting point compilation (Tetko et al.; mined from patent text by program, amines drawn as free bases though some values may be those of a salt).
